Assay: folding stability dG unfold from trypsin proteolysis; higher = more stable
readout-kind: folding stability dG unfold (kcal/mol)
Write the number in kcal/mol without appending the unit.

{"columns": ["biosequence", "measured"],
 "data": [
  ["SAGGSAGGSADLLEELPGLEVVDIERKGNSVVALFRNKETGELVRVTVDADGNITVEVLPLESAGGSAGGSA [r18_26_TrROS_Hall]", 3.7],
  ["SAGGSAKIVIKPDGTIEVEVNGKTFTFPPGAEIEIEEKDGELVLRIRLFNKDGKEVEEFEVTVRIESAGGSA [r15_424_TrROS_Hall]", 4.36],
  ["SAGGSAMVVTVPASSLTPESIRALARENPGPVELVFPEEGRRVTVEVRGDGVVRVEEHPLDPAELASAGGSA [r15_751_JUSTAS]", -1.07],
  ["SAGGSAGGSVLPDVLRTLFPDAKVTVKVTEVSETSATVDVEVEVPVPGGSTRRFRLKLEVPLSSAGGSAGGS [r20_78_TrMRF]", 1.78],
  ["SAGGSAGGSAGGGDFEKVKVRFRYVNPDGGPERDIEIEVEARKEDIPRLLKELKDAGLIESAGGSAGGSAGG [r7_618_TrMRF]", 0.982],
  ["SAGPWNIMVYDNGEPLEMIEIKGDEITIPLPPGPVRIAIFNPDDNGFVEEEVTPEDGTIEMKIPKGAKISAG [r5_469_TrROS]", -0.792]
]}

Lab note: next sequence to report on.
# sequence SSLSIPGATKEEFEEIAEELEKKNPGVKVTVTYDPENGVITITITKPVKDKKGNLIGTETEVITITVTKPSA [r9_378_JUSTAS] ; its folding stability dG unfold = 3.05

---

Assay: folding stability dG unfold from chymotrypsin proteolysis; higher = more stable
Rule: folding stability dG unfold under 2 kcal/mol gives false, otherwise true.

Please review the following examples before continuing.
{"columns": ["biosequence", "group"],
 "data": [
  ["SAGGSAGGSAGEPIKGIIRVYNPETGEVTDIELEFKTLEEALAFAASLPPTVARVEIVFASAGGSAGGSAGG [r11_25_TrMRF]", "true"],
  ["SAGGSAGGSAGGSKPNNFKNIPKPVFKFKITTTEWKKNKDGTWTPVSTSTAEVTVWSNTSAGGSAGGSAGGS [r4_288_TrMRF]", "true"],
  ["SMTFVLPYPKEGKTITVTYPDLESAVSSSGVATFQDPALLAQVIAALPSSVIVKEIKKNPDGTYTLTVAASA [r9_997_JUSTAS]", "false"]
]}

Is it the case that SAGKKITAEELAKKIAEELGLPEDAKVEVEEVDGTIYIRVEGYVIKITVKDGEITIEIKPAPASPEALKSAG [r5_190_TrROS_Hall] has folding stability dG unfold reaching or exceeding 2 kcal/mol?
true

---

Experiment: folding stability dG unfold from chymotrypsin proteolysis; higher = more stable
Rule: folding stability dG unfold under 1 kcal/mol gives f, otherwise t.

Please review the following examples before continuing.
{"columns": ["biosequence", "group"],
 "data": [
  ["SAGGSAKPELVKKLKEALEEEFPDLKVEVVKVDKKNKKIYIKVKSEEEKKRIAELLKKLGIEVEIESAGGSA [r15_196_TrROS_Hall]", "t"],
  ["SAGGPMKVKVTLIVRDKETGEWKEVEREMTLDELRELLASLPPDAEVFVKIEVDGKTVTLSLEELKALSAGG [r13_254_TrROS_Hall]", "t"],
  ["SAGGSAGGSAGMVDKKTGKPVEKVKVIIRNKNGKKEEKEVTLEELKELAENLPYEIEFEKSAGGSAGGSAGG [r17_125_TrROS_Hall]", "f"],
  ["SMITSTTTTDPNSNTTTTTYTYPDTTYTVTRTLNPDNTVTVTVTATTPPGPTTPLSTVNLSPTDTLTLPVSA [r9_1172_JUSTAS]", "t"],
  ["SAGGSAGGSIEINPNGNFKIRFRGGNRPQTHTIPIKPGETLDTIKDTIRKHMGPNFPEVEIERSAGGSAGGS [r12_300_TrROS]", "f"],
  ["SAGDNLKIDVEVEPAKVILGEFDENGKLIKPIEKDVLIVKVTVTFSNGKKLEIRATFFDGKLISVSSGSAGG [r19_44_TrMRF]", "t"]
]}

Is it the case that SAGGMQALLRLPDTDEVVVLPDELLEAIASGDPERLAALPPEVREVISNVAELVVVPPPDGDPRPEGGSAGG [r13_233_TrMRF] has folding stability dG unfold reaching or exceeding 1 kcal/mol?
f

---

Test: folding stability dG unfold from trypsin proteolysis; higher = more stable
readout-kind: folding stability dG unfold
Give the value; after it, write the unit.

{"columns": ["biosequence", "folding stability dG unfold"],
 "data": [
  ["SAGGSAGGSAGERIPIKVSIHDPDGRMVPMEIKEIDPDDGTIEVKLPGLPPGIRSIHIMLSAGGSAGGSAGG [r17_260_TrROS]", "-1.01 kcal/mol"],
  ["SAGGSAGGSGGKPLLIFTAMNGPEAEELVKKLLEEGGAGPIVAVVIPAPKDDPLFKEFFEKLKSAGGSAGGS [r12_649_TrMRF]", "0.935 kcal/mol"],
  ["SAGGSAGGSAMTIKVEVTVKVKVKLENGETKEKEVKVTVEIELPPLTKEELEKNKELLKKLLSAGGSAGGSA [r18_114_TrROS_Hall]", "2.42 kcal/mol"]
]}

# sequence SAGELELELELEFELEDGYRVEVRLRLRVRPDGSVRMELEVRIEPLPPPPPVRVVVVREDDPEALRALSAGG [r19_12_TrROS_Hall] ; its folding stability dG unfold = 2.73 kcal/mol

# sequence SAGGSAGGGHMPVTKTVQLPGRTVTLTYYPEKGTVKITFPEDGTEKTVPISPSETIEDVIKKLSSAGGSAGG [r6_166_JUSTAS] ; its folding stability dG unfold = 2.32 kcal/mol

# sequence SAVPLSEEELEALLEEKAKEKAEEILKENPELPPGAVIKIKVEYEQEVVLEDKVEPVKYEREVEYKVPLSAG [r14_486_JUSTAS] ; its folding stability dG unfold = 0.00158 kcal/mol

# sequence SAGGEEEILRQIREAAKKGEEVTIVFPKGMSIEELKKLIEEELGVEVEEIKVEKNENGELTVTIKVKSAGGS [r16_318_TrROS_Hall] ; its folding stability dG unfold = 4.33 kcal/mol

---

Experiment: folding stability dG unfold (combined trypsin and chymotrypsin); higher = more stable
folding stability dG unfold for assorted sequences
Write the number in kcal/mol without appending the unit.

Here's what some known entries look like.
{"columns": ["biosequence", "folding stability dG unfold / kcal/mol"],
 "data": [
  ["SAGGMIVANVNPETDKVTLLITRPVVLYDEETGELREEEVTLVITASLEELEKLEEESGLPLLIIPSSAGGS [r8_337_TrMRF]", 1.92],
  ["SAGGSVVTIVEVVPEDKKIVIKAPGNPITIPLENIKEIKLIPEKGYLEITINNTTIKVPLNNPNSISAGGSA [r2_48_JUSTAS]", 0.779],
  ["SAGGMSVSFPVDSSEELKKLLPKDYLVEIVSTPPDGSKSVRVVRPEDLEIDLPEGEKYYFEIKFLPKESAGG [r13_461_TrMRF]", 0.203],
  ["SAGGSAGGSAGGKTITLPPGMSEEELLEALKKAKPGDTITIEVDGKTYTLKVENGKITLTSAGGSAGGSAGG [r7_560_TrROS_Hall]", 3.56],
  ["SAGGSAGGSAVEFTDPNGAEVLEIKPLPDGTTRVLTKLPGGEIPIVTYDPNTGKITTTLLPASAGGSAGGSA [r18_483_JUSTAS]", -0.251]
]}

# sequence SAGGSAGGSAGGMTVLETEVTTLPNGVVKTTTLYKDPSTGALHTVTEEVYVPLGETALLSAGGSAGGSAGGS [r10_72_JUSTAS] ; its folding stability dG unfold = 0.523

# sequence SAGDKKTIELWFMFKTPEEARHEADSIARRLAEEGLTIKVELKDIEPMPDPDGEKYYMFEFKVTIQLPNSAG [r5_158_TrROS] ; its folding stability dG unfold = 3.06

# sequence SAGGSAGGSAGGKIKDIDVQQMPDGWYWVEIEIPDPNGEEVKITIMFPPGHSVDDALDQLSAGGSAGGSAGG [r7_54_TrROS] ; its folding stability dG unfold = 1.04

# sequence SAGGSAGGSAGGMVTTKTVVTFDPSGYITTTETIKVVGTDELLTKTSVTPVEPVPPLLSSAGGSAGGSAGGS [r10_928_JUSTAS] ; its folding stability dG unfold = 0.828

# sequence SAGGSAGGSAGGSPNWKWVEMEITFNVPPGAKITIPNGIKLTVPPGDPVTIKIYIAVPPSAGGSAGGSAGGS [r4_232_TrROS] ; its folding stability dG unfold = 2.47

# sequence SAGGSAGGSAGGSMSVSSVGSSSGAGMIVKTTYFPGSGGTTVVLIEPASGVVLATTPVPGSAGGSAGGSAGG [r7_154_JUSTAS] ; its folding stability dG unfold = 0.374

# sequence SAGGSAMKKIKIEVEKKGDEYIVRIKIKNPDGKIEEIEIKLKDEEEAKKLAEELLKEGKIDEIELESAGGSA [r15_575_TrROS_Hall] ; its folding stability dG unfold = 2.57

# sequence SAGIPYRVLELEIPGVGVRVEVRLAPDGRIVEVRVTVVPVPPVPPALPLRPELLVPDEDGRWYSPEELLSAG [r5_685_TrMRF] ; its folding stability dG unfold = 2.44

# sequence SAGGSAGGSAGGEKIVLKVKPGDTVEVNGKTIKVPPGALITFDKKTKKLTIEPLSPEDLSAGGSAGGSAGGS [r10_353_TrROS_Hall] ; its folding stability dG unfold = 1.11
